- protocol_notes: NCI Yeast Anticancer Drug Screen. Data for the mec2-1 strain (AID 157)
- experimental_context: S. cerevisiae mec2-1 strain, at 50.0 µM (retest, dose inferred, filed as 5.0), hits give high values
About 79,000 compounds went through this panel and 15% of them were active in at least one assay; those are over-represented in the sample as a whole.
recorded_metric: growth inhibition (%)

molecule	recorded_metric	experimental_result
O=C(O)/C=C\C(=O)NNc1ccccc1	growth inhibition	95
CCCCC(CC)CNC(=O)CI (centres undefined)	growth inhibition	22
CCCCCCCCCCCCCCCc1ccc(C(=O)C[n+]2ccccc2)cc1	growth inhibition	98
CCCOC(=O)c1nc(N(CC2CCCCC2)C(=O)NC)sc1/N=C/c1ccccc1	growth inhibition	90
Nc1cccc2c1-c1ccccc1C2=O	growth inhibition	18
Nc1cccc2cccc([N+](=O)[O-])c12	growth inhibition	-40
CC(C)(C)CC(C)(C)c1ccc(OCCOCCSC(=N)N)cc1	growth inhibition	100
COc1ccc(/C=C2/C(=O)ON=C2C)cc1	growth inhibition	41
C=c1c2ccccc2oc2nc3[nH]c(N)c(C#N)c(N)c3c(=N)c12	growth inhibition	70
c1ccc2sc(SSN3CC4CCC(CC4)C3)nc2c1	growth inhibition	93
Oc1ccc2ccccc2c1N=Nc1ccccn1	growth inhibition	96
CCCCCC/C=C1\CCC(CN2CCCC2)C1=O (centres undefined)	growth inhibition	99
COC(=O)c1nc(=S)[nH]c(C(=O)OC)c1C(=O)c1ccc(Cl)c(Cl)c1	growth inhibition	98
O=[N+]([O-])c1ccc2c(c1)Cc1ccccc1-2	growth inhibition	-25
CC1=CC[C@@H]2[C@@H](CC[C@@]2(C)O)C(C)(C)[C@H]1CC[C@@H]1[C@@]2(C)CC[C@@H](O)C(C)(C)O[C@@H]2CC[C@]1(C)O	growth inhibition	19
O=C(NOC(=O)c1ccccc1)c1ccccc1	growth inhibition	99
O=C(/C=C/C(Cl)(Cl)Cl)Nc1ccc(Cl)cc1	growth inhibition	21
Cc1cc(Br)c2nsnc2c1[N+](=O)[O-]	growth inhibition	97
O=C(CCc1ccccc1)ON1C(=S)NC(c2ccccc2)(c2ccccc2)C1=S	growth inhibition	22
O=[N+]([O-])C=C(c1ccccc1)c1ccccc1	growth inhibition	89
Oc1c(C(Nc2ccccc2)c2ccccc2)ccc2cccnc12 (centres undefined)	growth inhibition	97
C=C1C(=O)OC2CC1C(OC(=O)/C=C/c1ccccc1)C/C(C)=C/CC/C(C)=C/CCC2(C)O (centres undefined)	growth inhibition	96
COc1ccc(NC(=O)/C(=C/N2C(=O)/C(=C/c3ccc(OC)c(OC)c3)NC2=S)C(C)=O)cc1	growth inhibition	85
Nc1ccc(-c2ccc(N)c(S(=O)(=O)O)c2)cc1S(=O)(=O)O	growth inhibition	12

---

- protocol_notes: NCI Yeast Anticancer Drug Screen. Data for the mlh1 rad18 strain (AID 175)
- experimental_context: S. cerevisiae mlh1 rad18 strain growth inhibition; at 50.0 µM (retest, dose inferred, filed as 5.0)
About 79,000 compounds went through this panel and 15% of them were active in at least one assay; those are over-represented in the sample as a whole. The source made the active and inactive calls. Rule as the data show it: active = growth inhibition above about 70%; inactive = the rest.
Classes used: Yes = active, No = inactive

compound	qualitative_label
CC1(c2ccc(O)cc2)CCC(C(C)(C)c2ccc(O)cc2)CC1 (stereo not drawn)	Yes
O=C(/C=C/C(Cl)(Cl)Cl)Nc1ccc(Cl)cc1	No
Cc1c(O)ccc(SC#N)c1C	Yes
CCSc1nc2ccccc2o1	No
CCCCOS(=O)(=O)c1ccccc1	No
Cc1cc(O)c2c(c1)C(=O)C(c1c(C)cc3c(c1O)C(=O)C1OC1C3=O)=CC2=O (stereo not drawn)	Yes
CN(C)c1ccc(/C=C/c2ccnc3ccccc23)cc1	Yes
CCCCC(C=O)(C=C=C(C)C)CC (stereo not drawn)	No
O=Cc1ccc(-c2ccc(-c3ccc(CO)s3)o2)s1	Yes
c1ccc(C2NCCNC2c2ccccc2)cc1 (stereo not drawn)	No
CCCCCCCCCCCC[n+]1ccc2ccccc2c1	Yes
O=C(CCc1ccccc1)ON1C(=S)NC(c2ccccc2)(c2ccccc2)C1=S	No
Nc1c(N)c(Cl)c(Cl)c(Cl)c1Cl	Yes

---

- protocol_notes: NCI Yeast Anticancer Drug Screen. Data for the sgs1 mgt1 strain (AID 161);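 also: 0% = growth of cultures given vehicle only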
- experimental_context: S. cerevisiae sgs1 mgt1 strain, at 50.0 µM (retest, dose inferred, filed as 5.0)
The panel holds about 79,000 compounds, 15% with a hit somewhere; the sample as a whole holds those more often. The source made the active and inactive calls. Cut-off read from the data, not from the text of the source: active = growth inhibition above about 70%; inactive = the rest.
Classes used: label 1 for active, label 0 for inactive

molecule	qualitative_label
N#C/C(=N\O)C(N)=O	label 1
CC1=CC[C@@H]2[C@@H](CC[C@@]2(C)O)C(C)(C)[C@H]1CC[C@@H]1[C@@]2(C)CCC(=O)C(C)(C)O[C@@H]2CC[C@]1(C)O	label 1
CC(=O)Oc1c(Br)cc(Br)cc1C(OC(C)=O)OC(C)=O	label 1
Cc1cc(I)nc2ccccc12	label 0
CCOc1ccc(NC(=O)/C(=N\N)C(C(=O)OC)c2nc3ccc(Cl)cc3[nH]c2=O)cc1 (stereo unspecified)	label 0
Cc1ccc(/C=N/Nc2cc(C)c3cccc(C)c3n2)s1	label 1
Oc1ccc(Cl)cc1C(c1cc(Cl)ccc1O)C(Cl)(Cl)Cl	label 1
CCCCCCCCCCCCCCCC[N+]1(C)CCCC1c1cccnc1 (stereo unspecified)	label 1
O=C(c1ccccc1)C(Br)C(Br)c1ccccc1 (stereo unspecified)	label 1
CC1(C)CCC[C@]2(C)[C@@H](C=O)C(C=O)=CC[C@@H]12	label 1
COC(=O)c1ccc(=O)c2nc3/c(=C/O)c(O)cc(=O)c3[nH]c12	label 1

---

- protocol_notes: NCI Yeast Anticancer Drug Screen. Data for the bub3 strain (AID 167)
- experimental_context: S. cerevisiae bub3 mutant strain, at 50.0 µM (retest, dose inferred, filed as 5.0), hits give high values
This is part of a sample that, as a whole, favours compounds with a hit. Of some 79,000 tested, about 15% had one in any assay.
The reader will find reported growth inhibition values listed item by item below.

compound	growth inhibition, %
N=C1C(=N)c2ccccc2-c2ccccc21	99
CC(C)(C)c1cc([N+](=O)[O-])c(O)c([N+](=O)[O-])c1	74
COC1CC(C)C(OC)c2cc(O)cc(c2O)NC(=O)/C(C)=C/C=C\C(C)C(OC(N)=O)/C(C)=C\C(C)C1OC (stereo unspecified)	98
O=C(CCc1ccccc1)ON1C(=S)NC(c2ccccc2)(c2ccccc2)C1=S	47
Oc1ccc(/C=C/c2ccc(Cl)cc2)cc1	98
CN(C)c1ccc(/C=C/c2nccc3ccccc23)cc1	97
C=CCO/N=C/c1cc(NC(=S)c2ccoc2C)ccc1Cl	90
CC(=O)Nc1ccc(C(=O)CCl)cc1	99
CCc1cnc2ccccc2c1/C=C/c1ccc(N(C)C)cc1	97
Cc1ccccc1NC(=O)Cc1csc2[n+]1C(=O)/C(=C/c1ccc([N+](=O)[O-])cc1)S2	4
CN1CCC(CN2c3ccccc3Sc3ccccc32)C1 (stereo unspecified)	6

---

- protocol_notes: NCI Yeast Anticancer Drug Screen. Data for the cln2 rad14 strain (AID 165);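 also: 0% = growth equal to vehicle treated cultures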
- experimental_context: S. cerevisiae cln2 rad14 strain, at 50.0 µM, hits give high values
- Description: Growth inhibition of yeast strains with defined genetic alterations is measured as a screen for potential anti-cancer activity. Selected strains with alterations in DNA damage repair or cell cycle control were exposed to compounds and growth inhibition was measured relative to vehicle treated controls. The strain used in this assay is cln2 rad14
Compounds without any hit were thinned out: in the full panel of roughly 79,000, 15% have a hit.
recorded_metric: growth inhibition (%)

compound	experimental_result
O=C1C(=O)c2cccnc2-c2ncccc21	91
C=C1C(=O)OC2CC1C(OC(=O)/C=C/c1ccccc1)C/C(C)=C/CC/C(C)=C/CCC2(C)O (stereo unspecified)	83
C=C(CO)C(=O)OC1CC(=C)C2CC(O)C(C)C2C2OC(=O)C(=C)C12 (stereo unspecified)	32.4
O=C1C=CC(=O)N1c1ccccc1	99
C=C1C(=O)C2=CC1CCC(=O)C1(C)CCC(OC(C)=O)C(C)(C)C1CC2O (stereo unspecified)	65
Cc1cc(N/N=C/c2ccccn2)nc2ccccc12	83.9

---

- protocol_notes: NCI Yeast Anticancer Drug Screen. Data for the mec2-1 strain (AID 157)
- experimental_context: S. cerevisiae mec2-1 strain, at 5.0 µM (retest, dose inferred, filed as 0.5), hits give high values
About 79,000 compounds went through this panel and 15% of them were active in at least one assay; those are over-represented in the sample as a whole. *1 amine or outer side, *2 acyl side, *3 side chain or, on linkers, in order; H or OH if unused. Where a SMILES comes first, the peptide text is derived from it. [ ]: non-standard residue; d: D form. The star is where a group is joined. X5 = CCC(=O)CC1CC(C)CC(C(=O)[*:2])N1[*:1]; X4 = CCCCCCCCC(C)C(=O)*; Aib = CC(C)(N)C(=O)O; X6 = CC(CN(C)CCO)N*
Rule: growth inhibition under 10% gives not met, otherwise met.

compound	qualitative_label
CCC(=O)c1ccc([N+](=O)[O-])o1	not met
CCN(CC)c1ccc(/C=C\C(=O)c2ccc(NC(C)=O)cc2)cc1	not met
CCCCC(C=O)(C=C=C(C)C)CC (configuration not stated)	not met
CCCCCCCCCCCCNCCCc1ccccc1	met
CCCCCCCCC(C)C(=O)N1CCCC1C(=O)N1C(CC(=O)CC)CC(C)CC1C(=O)NC(C)C(=O)NC(C)(C)C(=O)NC(C)(C)C(=O)NC(C(=O)NC(C)C(=O)NC(C)(C)C(=O)NC(C)(C)C(=O)NC(C)CN(C)CCO)C(C)CC (configuration not stated) (X4-P[X5]A[Aib][Aib]IA[Aib][Aib]-X6; configuration not given here)	met
Cc1c2c(c(C)c3c[n+](C)ccc13)Oc1ccccc1O2	met
O=C(c1ccccc1)c1cc2ccccc2oc1=O	not met
